mIL-2 (pg/mL), antigen-specific T lymphocyte stimulation test; antibody 0.08 ug/mL reference
Target: T1, human LAG-3 (full length, on the cell surface) (human, UniProt P18627 23-525)
T1 sequence: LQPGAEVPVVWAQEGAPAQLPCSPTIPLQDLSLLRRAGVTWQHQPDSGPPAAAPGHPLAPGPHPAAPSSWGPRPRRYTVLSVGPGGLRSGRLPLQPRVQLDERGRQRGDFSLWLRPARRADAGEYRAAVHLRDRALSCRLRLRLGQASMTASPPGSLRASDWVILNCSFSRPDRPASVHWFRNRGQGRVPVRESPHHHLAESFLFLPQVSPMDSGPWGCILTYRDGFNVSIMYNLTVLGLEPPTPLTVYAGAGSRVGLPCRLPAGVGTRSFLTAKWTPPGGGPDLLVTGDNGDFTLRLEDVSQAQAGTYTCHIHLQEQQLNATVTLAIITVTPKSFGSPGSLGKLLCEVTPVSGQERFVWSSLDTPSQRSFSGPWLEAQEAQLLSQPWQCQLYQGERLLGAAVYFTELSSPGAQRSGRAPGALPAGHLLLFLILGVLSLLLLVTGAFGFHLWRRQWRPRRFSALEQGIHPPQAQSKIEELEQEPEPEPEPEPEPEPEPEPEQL
Test: cell-based or functional assay
readout.type: mIL-2 (pg/mL), antigen-specific T lymphocyte stimulation test; antibody 0.08 ug/mL

* 556F6B8 (mouse antibody purified from hybridoma) (antibody, V domains shown, also called mAb123-556F6B8) VH: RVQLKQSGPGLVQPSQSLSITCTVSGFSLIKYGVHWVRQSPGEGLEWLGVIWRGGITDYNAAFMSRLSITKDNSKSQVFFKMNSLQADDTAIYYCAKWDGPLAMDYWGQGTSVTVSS VL: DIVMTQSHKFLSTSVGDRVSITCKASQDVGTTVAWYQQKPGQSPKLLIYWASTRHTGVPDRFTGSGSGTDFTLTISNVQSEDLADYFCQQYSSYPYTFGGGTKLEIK | 141
* 409D4E10 (mouse antibody purified from hybridoma) (antibody, V domains shown, also called mAb112-409D4E10) VH: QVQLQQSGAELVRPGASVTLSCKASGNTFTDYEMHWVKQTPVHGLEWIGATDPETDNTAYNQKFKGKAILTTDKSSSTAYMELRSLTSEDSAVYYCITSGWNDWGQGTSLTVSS VL: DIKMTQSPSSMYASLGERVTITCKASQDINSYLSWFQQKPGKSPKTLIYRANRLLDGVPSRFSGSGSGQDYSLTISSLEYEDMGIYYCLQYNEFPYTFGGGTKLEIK | 175
* 409B11E12 (mouse antibody purified from hybridoma) (antibody, V domains shown, also called mAb104-409B11E12) VH: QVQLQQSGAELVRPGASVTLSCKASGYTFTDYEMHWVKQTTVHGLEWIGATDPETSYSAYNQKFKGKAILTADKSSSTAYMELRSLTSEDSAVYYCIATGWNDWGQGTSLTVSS VL: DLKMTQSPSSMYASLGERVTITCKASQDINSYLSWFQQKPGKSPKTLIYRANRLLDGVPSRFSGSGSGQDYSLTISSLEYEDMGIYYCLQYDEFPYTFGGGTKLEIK | 183
* 405B8H3 (mouse antibody purified from hybridoma) (antibody, V domains shown, also called mAb103-405B8H3; 405B81-13) VH: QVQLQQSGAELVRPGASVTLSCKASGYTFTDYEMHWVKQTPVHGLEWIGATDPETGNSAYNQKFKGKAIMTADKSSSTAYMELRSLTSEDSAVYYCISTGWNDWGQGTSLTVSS VL: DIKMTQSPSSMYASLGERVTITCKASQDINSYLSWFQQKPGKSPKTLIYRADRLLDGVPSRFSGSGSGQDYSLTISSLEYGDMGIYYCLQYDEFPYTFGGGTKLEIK | 204
